Reference source for all entries: PubChem BioAssay

Assay: viability profiling in RPMI8226 myeloma cells – cell-based, resazurin fluorescence, basal, 24 h, PK04 Diversity Set, profiling panel (AID 1180);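 also: RPMI8826 multiple myeloma cell line at 5000 cells per well; test concentration not given here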
Settings: higher = more signal

| molecule | z-score |
| --- | --- |
| C=CC[C@]1(C(=O)N2CCOCC2)N=C(c2ccc(OCCCO)cc2)O[C@H]1c1ccccc1CN=[N+]=[N-] | -1.03 |
| COc1cc(C(O)C2C=CC3C(=O)NC(=O)C3N2Nc2ccc(Cl)cc2Cl)cc(OC)c1OC (centres undefined) | -0.933 |
| [N-]=[N+]=NCc1ccccc1C[C@@]1(C(=O)NCCN2CCOCC2)N=C(c2ccc(OCCCO)cc2)O[C@@H]1c1ccccc1CN=[N+]=[N-] | -0.971 |
| CCCC=C(CCC)[C@@H](NS(=O)(=O)CC)c1ccccc1 | -0.745 |
| CCCNC(=O)[C@@]1(Sc2ccc(C)cc2)CC(=O)N(Cc2ccccc2)[C@@H]1c1ccc(CO)cc1I | -2.81 |
| CC(C)C(CO)N1C(=O)[C@@H]2[C@H]3C(=O)OCC=C[C@H]3OC23C=CCN(Cn2nnc4ccccc42)C(=O)[C@@H]13 (some centres undefined) | -0.0558 |
| COc1cccc(C[C@H]2C[C@@H](CO[Si](C(C)C)(C(C)C)C(C)C)N3C(=O)[C@]4(C(C)=O)O[C@]23[C@H]2C(=O)N(C)C(=O)[C@H]24)c1 | -2.81 |
| O=C1O[C@@H](c2ccccc2)[C@@H](c2ccccc2)N2[C@@H](c3ccc(O)cc3)[C@]3(C(=O)Nc4ccc(C#CC5=CCCCC5)cc43)[C@@H](C(=O)Nc3nc4ccccc4s3)[C@H]12 | -0.595 |
| C=C[C@H](C)[C@H](OC(=O)Nc1ccc(SC)cc1)c1ccc(O)c2ccccc12 | -2.55 |
| CN(C)CCCNC(=O)[C@@]1(Cc2ccccc2I)c2ccccc2C(=O)N(Cc2ccccc2Cl)[C@H]1c1ccc(CO)cc1 | -6.59 |
| O=C1CSC(c2cccc([N+](=O)[O-])c2)N1c1ccccc1 (centres undefined) | 0.407 |
| CN1C(=O)C2C=CC(C(O)c3ccc(F)cc3)N(N3CCCCC3)C2C1=O (centres undefined) | -1.79 |
| [N-]=[N+]=Nc1ccccc1C[C@]1(C(=O)NCCN2CCOCC2)N=C(c2ccc(OCCCO)cc2)O[C@H]1c1ccccc1N=[N+]=[N-] | -2.13 |
| COCCOC(=O)N1C(=O)[C@@]2(c3cc(C#Cc4ccc(OC)cc4)ccc31)[C@H](C(=O)N1CCc3cc(OC)c(OC)cc3C1)[C@H]1C(=O)O[C@H](c3ccccc3)[C@H](c3ccccc3)N1[C@@H]2c1ccc(O)cc1 | 0.0506 |
| C[N+](C)(C)CCCC[C@@H]1NC(=O)[C@@H]2C[C@H](C(=O)NCCCCCNC(=O)CS)[C@H](c3cccc(OCCO)c3)N2C1=O | 0.228 |
| CCN(CC)c1ccc(N2CC=CC34O[C@@H]5/C=C\CCCOC(=O)C5[C@H]3C(=O)N(CCCCCO)[C@@H]4C2=O)cc1 (some centres undefined) | 0.681 |
| [N-]=[N+]=NCc1ccccc1[C@H]1OC(c2ccc(OCCCO)cc2)=N[C@@]1(Cc1ccccc1N=[N+]=[N-])C(=O)N1CCCCC1 | -2.94 |
| COC(=O)[C@@]1(Cc2ccc(F)cc2)[C@H]2c3cc(C(=O)N(C)C)n(Cc4ccc(C)c(F)c4F)c3C[C@H]2CN1C(=O)c1ccccc1 | -0.455 |
| COCCCNC(=O)[C@]1(Cc2ccccc2CN=[N+]=[N-])N=C(c2ccc(OCCCO)cc2)O[C@@H]1c1ccccc1CN=[N+]=[N-] | -2.03 |
| O=c1c2ccc(Br)cc2nc(-c2ccccc2)n1Cc1cccc(O)c1 | -0.0974 |
| COCCOC(=O)N1C(=O)[C@@]2(c3cc(C#Cc4ccc(OC)cc4)ccc31)[C@H](C(N)=O)[C@H]1C(=O)O[C@H](c3ccccc3)[C@H](c3ccccc3)N1[C@@H]2c1ccc(OCCO)cc1 | -1.82 |
| OCCCC1=CC(c2cccs2)N(Cc2cccc(OC(F)(F)F)c2)CC1 (centres undefined) | -0.175 |
| COc1ccc([Si](C)(C)[C@@H]2[C@@H](CCO)O[C@]3(C(=O)N(Cc4ccccc4)c4ccc(N5C(=O)COc6ccccc65)cc43)[C@H]2C)cc1 | -0.976 |
| COc1ccc([Si](C)(C)[C@@H]2[C@@H](CCO)O[C@]3(C(=O)N(Cc4cccc(N5C(=O)COc6ccccc65)c4)c4ccccc43)[C@H]2C)cc1 | -3.26 |
| COC(=O)C(CC#Cc1ccc2c(c1)[C@]1(C(=O)N2)[C@H](c2ccc(OCCO)cc2)N2[C@H](c3ccccc3)[C@H](c3ccccc3)OC(=O)[C@H]2[C@@H]1C(=O)O)C(=O)OC | 0.749 |
| C=C(/C(=C/C[C@@H](OC(C)=O)c1ccccc1OCCO)c1cnc2ccccc2c1)C(C)C | -0.267 |
| O=C1c2ccccc2[C@](Cc2ccccc2I)(C(=O)NC2CC2)[C@H](c2ccc(CO)cc2)N1Cc1ccccc1Cl | -0.506 |
| COC(=O)[C@@]1(Cc2ccc(OC)cc2)[C@H]2c3cc(C(=O)N(C)C)n(CCF)c3C[C@H]2CN1C(=O)c1ccccc1 | -0.102 |
| CC1C=C(CCCO)C=C(C(=O)OCCS(C)(=O)=O)C(C(=O)OCCS(C)(=O)=O)=CN1Cc1cccc(OC(F)(F)F)c1 (centres undefined) | 0.0364 |
